assay.endpoint: melting point
Respond with the figure and its unit, in that order.

Known results for compounds:
>>> print(df.to_string())
                                   compound  assay_endpoint    result
0  CC(=O)n1nc(C)c(Nc2nccc3c2ncn3CC(=O)N(C)C)c1C   melting point  175.4 °C
1  Cc1cc(C(F)(F)F)cc(C)c1Nc1ncc(C2CC2)c2c1ncn2CC(=O)N(C)C   melting point  246.7 °C
2  CN(C)C(=O)Cn1cnc2c(Nc3c(Cl)cc(C(F)(F)F)cc3Cl)nccc21   melting point  238.4 °C
3   Cc1n[nH]c(C)c1Nc1nccc2c1ncn2CC(=O)N(C)C   melting point  283.5 °C
4  Cc1cc(C(F)(F)F)cc(C)c1Nc1ncc(C)c2c1cnn2CC(=O)N(C)C   melting point  211.6 °C
5  Cc1nn(-c2ccc(F)cn2)c(C)c1Nc1nccc2c1ncn2CC(=O)N(C)C   melting point  256.6 °C
6  CCN(C)C(=O)Cn1cnc2c(Nc3c(C)cc(C(F)(F)F)cc3C)nccc21   melting point  186.5 °C
7  CC(C)c1cc(C(F)(F)F)cc(F)c1Nc1nccc2c1ncn2CC(=O)N(C)C   melting point  191.4 °C

Next compound, please.
Output melting point of Cc1cc(C(F)(F)F)cc(C)c1Nc1nccc2c1ncn2C(C)C(=O)N(C)C (stereo not drawn)
199.9 °C
